# subject_of_test: UniProt Q6R7Z5
# Sequence (Q6R7Z5 entry or part of it): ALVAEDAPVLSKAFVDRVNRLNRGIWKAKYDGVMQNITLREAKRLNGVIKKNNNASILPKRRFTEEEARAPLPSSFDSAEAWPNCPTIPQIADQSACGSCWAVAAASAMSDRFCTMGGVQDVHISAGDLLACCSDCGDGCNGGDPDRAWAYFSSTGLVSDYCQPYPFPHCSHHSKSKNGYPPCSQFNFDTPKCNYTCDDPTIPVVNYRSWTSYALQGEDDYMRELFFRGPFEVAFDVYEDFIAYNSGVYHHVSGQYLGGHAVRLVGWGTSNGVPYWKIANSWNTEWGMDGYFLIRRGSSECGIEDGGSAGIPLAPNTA
# method: Enzymatic inhibition of recombinant Tb CatB, fluorogenic Z-Phe-Arg-AMC substrate
List of IC50 values.
property_measured: IC50 (µM)

>  <mol>
CCOC(=O)[C@@H]1O[C@H]1C(=O)[C@H](CCc1ccccc1)NC(=O)[C@H](Cc1ccccc1)NC(=O)OCc1ccccc1

>  <subject_of_test>
UniProt Q6R7Z5

>  <relation_symbol>
=

>  <value>
0.4

$$$$
>  <mol>
CCOC(=O)[C@H]1O[C@@H]1C(=O)[C@H](CCc1ccccc1)NC(=O)[C@H](Cc1ccccc1)NC(=O)OCc1ccccc1

>  <subject_of_test>
UniProt Q6R7Z5

>  <relation_symbol>
>

>  <value>
1

$$$$

* * *

List of pIC50 values.
# subject_of_test: falcipain (FP2) (Plasmodium falciparum)
# Sequence (Q8I6U4 244-484): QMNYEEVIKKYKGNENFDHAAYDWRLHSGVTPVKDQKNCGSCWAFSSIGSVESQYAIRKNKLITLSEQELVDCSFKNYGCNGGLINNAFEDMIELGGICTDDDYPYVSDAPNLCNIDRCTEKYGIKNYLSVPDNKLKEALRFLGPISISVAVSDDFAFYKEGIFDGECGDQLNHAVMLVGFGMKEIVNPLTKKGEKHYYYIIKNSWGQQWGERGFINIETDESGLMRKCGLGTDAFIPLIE
# method: Enzymatic inhibition of recombinant falcipain (FP2), fluorogenic Z-Phe-Arg-AMC substrate
pIC50: −log10 of the molar value.
property_measured: pIC50

>  <mol>
CCOC(=O)[C@H]1O[C@@H]1C(=O)[C@H](CCc1ccccc1)NC(=O)[C@H](Cc1ccccc1)NC(=O)OCc1ccccc1

>  <subject_of_test>
falcipain (FP2) (Plasmodium falciparum)

>  <property_measured>
pIC50

>  <value>
7.15

$$$$
>  <mol>
CCOC(=O)[C@@H]1O[C@H]1C(=O)[C@H](CCc1ccccc1)NC(=O)[C@H](Cc1ccccc1)NC(=O)OCc1ccccc1

>  <subject_of_test>
falcipain (FP2) (Plasmodium falciparum)

>  <property_measured>
pIC50

>  <value>
7.36

$$$$

* * *

System: cruzain (Trypanosoma cruzi) | Read-out: IC50
Sequence (P25779 123-467): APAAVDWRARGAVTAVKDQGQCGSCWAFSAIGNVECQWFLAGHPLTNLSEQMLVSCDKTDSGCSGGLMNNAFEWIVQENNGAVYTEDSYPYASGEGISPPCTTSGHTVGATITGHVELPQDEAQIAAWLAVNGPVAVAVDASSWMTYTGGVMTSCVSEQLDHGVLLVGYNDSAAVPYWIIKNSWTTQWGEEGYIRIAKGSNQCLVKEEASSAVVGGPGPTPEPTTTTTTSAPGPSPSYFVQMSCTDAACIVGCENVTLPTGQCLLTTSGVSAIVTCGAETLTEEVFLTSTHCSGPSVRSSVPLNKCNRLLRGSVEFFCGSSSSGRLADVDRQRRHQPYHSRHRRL

>  <mol>
CCOC(=O)[C@H]1O[C@@H]1C(=O)[C@H](CCc1ccccc1)NC(=O)[C@H](Cc1ccccc1)NC(=O)OCc1ccccc1

>  <IC50 (µM)>
0.02

$$$$
>  <mol>
CCOC(=O)[C@@H]1O[C@H]1C(=O)[C@H](CCc1ccccc1)NC(=O)[C@H](Cc1ccccc1)NC(=O)OCc1ccccc1

>  <IC50 (µM)>
0.05

$$$$
